Measured melting point, listed per entry for reference.
details: a range is the spread between reports

Sample records with melting point:
- Compound: "Cc1cc(Br)ccc1Br"
  Recorded Result: "5 to 6 °C"
- Compound: "c1ccc2c(c1)ccc1cc3c(ccc4ccccc43)cc12"
  Recorded Result: "266 to 270 °C"
- Compound: "Cc1cccc(Br)c1"
  Recorded Result: "-40 to -39.8 °C"

Task item: # return recorded melting point for input CCBr
Reply: -119 °C

Task item: # return recorded melting point for input CN(C)c1ccc(C=Nc2ccccc2)cc1
Reply: 96 to 100 °C

Task item: # return recorded melting point for input Clc1cccc(Br)c1
Reply: -22 to -21.5 °C

Task item: # return recorded melting point for input Cc1cccc(C)c1
Reply: -48 to -47 °C

Task item: # return recorded melting point for input CC(C)(C)C(=O)O
Reply: 33 to 36 °C

Task item: # return recorded melting point for input CC(C)C(=O)O
Reply: -47 to -46 °C

Task item: # return recorded melting point for input CCCCCCCCCCCCCCCCCCCCO
Reply: 64 to 66.1 °C

Task item: # return recorded melting point for input Nc1cc(C(=O)O)ccc1Cl
Reply: 214 to 216 °C

Task item: # return recorded melting point for input CCC1CCCC1C (stereo unspecified)
Reply: -106 °C

Task item: # return recorded melting point for input CC(C)(c1ccccc1)c1ccc(O)cc1
Reply: 70 to 75 °C

Task item: # return recorded melting point for input c1ccc(-c2cccc(-c3ccccn3)n2)nc1
Reply: 90 to 91 °C

Task item: # return recorded melting point for input CCC(C)(CC)CC
Reply: -91 to -90.9 °C

Task item: # return recorded melting point for input O=C(O)Cc1ccccc1
Reply: 76 to 79 °C

Task item: # return recorded melting point for input Cc1cc(O)ccc1O
Reply: 128 to 129 °C

Task item: # return recorded melting point for input O=C1CCCCCCCCCCCCCCO1
Reply: 32 to 35 °C

Task item: # return recorded melting point for input CCCCOC(=O)CCCCCCCCC(=O)OCCCC
Reply: -11 to -10 °C

Task item: # return recorded melting point for input CCCCCCCI
Reply: -48.2 to -48 °C

====

settings: a range is the spread between reports
Parameter Measured: melting point

Sample records with melting point:
- Compound: "CCCCCCBr"
  melting point: "-85 to -84.7 °C"
- Compound: "Nc1ccc([N+](=O)[O-])cn1"
  melting point: "187 to 188 °C"
- Compound: "CN(C)c1ccc([N+](=O)[O-])cc1"
  melting point: "164 to 165 °C"
- Compound: "N#Cc1nn(-c2c(Cl)cc(C(F)(F)F)cc2Cl)c(N)c1S(=O)C(F)(F)F (stereo not drawn)"
  melting point: "199 to 200 °C"
- Compound: "CCCCCCCCCCC1CCCCC1"
  melting point: "-2 to -1.7 °C"
- Compound: "CC1OC(C)OC(C)O1 (stereo not drawn)"
  melting point: "12 to 12.6 °C"
- Compound: "c1ccc(-c2cnc(-c3ccccc3)o2)cc1"
  melting point: "72 to 74 °C"
- Compound: "O=Cc1ccnc2ccccc12"
  melting point: "50 to 51 °C"
- Compound: "OCCN(CCO)CCO"
  melting point: "19.5 to 20.5 °C"
- Compound: "OCCCCCCCO"
  melting point: "18 to 22.5 °C"

Task item: # return recorded melting point for input COc1ccccc1CC#N
Reply: 66 to 69.8 °C

Task item: # return recorded melting point for input Brc1cc(Br)cc(Br)c1
Reply: 122 to 124 °C

Task item: # return recorded melting point for input CC(CCC(=O)O)CC(=O)O (stereo not drawn)
Reply: 100 to 101 °C

Task item: # return recorded melting point for input CCCC
Reply: -138 to -137 °C

Task item: # return recorded melting point for input CCOc1ccccc1
Reply: -30 to -29.5 °C

Task item: # return recorded melting point for input CCCCOc1ccc(O)cc1
Reply: 65 to 65.5 °C

Task item: # return recorded melting point for input C=CCC(C)C
Reply: -154 to -153 °C

====

Measured melting point, listed per entry for reference.
details: a range is the spread between reports

Sample records with melting point:
- Compound: "N#Cc1ccccc1[N+](=O)[O-]"
  melting point: "108 to 109 °C"
- Compound: "C#CC(C)(O)c1ccccc1 (stereo unspecified)"
  melting point: "48 to 52.3 °C"
- Compound: "C=CCCCCCCCCCCCCCCC"
  melting point: "11 to 11.5 °C"
- Compound: "CC(=O)Nc1cccc([N+](=O)[O-])c1"
  melting point: "152 to 155 °C"
- Compound: "O=C(O)c1ccc([N+](=O)[O-])o1"
  melting point: "184 to 187 °C"

Task item: # return recorded melting point for input Clc1ccccc1C(Cl)(Cl)Cl
Reply: 29 to 30 °C

Task item: # return recorded melting point for input O=C(O)C(Br)(Br)Br
Reply: 132 °C

Task item: # return recorded melting point for input Cc1cccc([N+](=O)[O-])c1N
Reply: 95 to 96 °C

Task item: # return recorded melting point for input CSC(C)C
Reply: -102 °C

Task item: # return recorded melting point for input Cc1ccc(Cl)cc1Cl
Reply: -13.5 to -13 °C

====

Measured melting point, listed per entry for reference.
conditions: a range is the spread between reports

Sample records with melting point:
- Molecule: "O=C1CC[C@@H](C(=O)O)N1"
  melting point: "160 to 162 °C"
- Molecule: "C=Cc1ccc([N+](=O)[O-])cc1"
  melting point: "27 to 29 °C"
- Molecule: "Brc1c(Br)c(Br)c(Oc2c(Br)c(Br)c(Br)c(Br)c2Br)c(Br)c1Br"
  melting point: "305 to 306 °C"

Task item: # return recorded melting point for input COC(=O)CCCCC(=O)OC
Reply: 8 to 10.3 °C

Task item: # return recorded melting point for input c1ccc(CN(Cc2ccccc2)Cc2ccccc2)cc1
Reply: 91.5 to 93 °C

Task item: # return recorded melting point for input Cc1ccc(C(C)C)cc1O
Reply: 1 to 2 °C

Task item: # return recorded melting point for input COc1ccccc1Br
Reply: 2 to 3 °C

Task item: # return recorded melting point for input N#CCc1ccc(I)cc1
Reply: 48 to 53 °C

Task item: # return recorded melting point for input Cc1ccccc1-c1ccccc1C
Reply: 18 to 19.5 °C

Task item: # return recorded melting point for input CC(=O)C(C)(C)C
Reply: -53 to -52 °C

Task item: # return recorded melting point for input CC(C)(C)c1cccc(O)c1
Reply: 41 to 45 °C

Task item: # return recorded melting point for input CC(=O)OCc1ccccc1
Reply: -51.3 to -51 °C

Task item: # return recorded melting point for input COC(C)OC
Reply: -113 °C

====

conditions: a range is the spread between reports
Measured melting point, listed per entry for reference.

- Molecule: "O=C(Oc1ccccc1)c1ccccc1O"
  melting point: "42 to 43 °C"
- Molecule: "Cc1ccc(O)c(O)c1"
  melting point: "65 to 68 °C"
- Molecule: "C1CCCCCCCCCCC1"
  melting point: "59 to 61 °C"
- Molecule: "CCOC=C(C#N)C#N"
  melting point: "65 to 66 °C"
- Molecule: "CC(=O)c1ccc2ccccc2c1"
  melting point: "53 to 56 °C"
- Molecule: "C1CCSC1"
  melting point: "-96.1 to -96 °C"

Task item: # return recorded melting point for input Oc1cccc(O)c1
Reply: 110 to 111 °C

Task item: # return recorded melting point for input Cc1cc(C)c(C)cc1C
Reply: 79 to 80 °C

Task item: # return recorded melting point for input O=Cc1ccc(Cl)cc1
Reply: 46 to 48.5 °C

Task item: # return recorded melting point for input O=C(CCl)c1ccc(Cl)cc1
Reply: 101 to 102 °C

Task item: # return recorded melting point for input C=CCOc1nc(OCC=C)nc(OCC=C)n1
Reply: 26 to 27 °C

====

Measured melting point, listed per entry for reference.
conditions: a range is the spread between reports

Sample records with melting point:
- Compound: "c1cc2c3c(cccc3c1)CC2"
  Recorded Result: "93.4 to 95 °C"
- Compound: "CCN1C(=O)C=CC1=O"
  Recorded Result: "44 to 45.5 °C"
- Compound: "CCCCCCCCCCCCCCC"
  Recorded Result: "9.9 to 10 °C"
- Compound: "CCCC#CC(=O)O"
  Recorded Result: "25 to 27 °C"
- Compound: "CCC1(O)CC2CN(CCc3c([nH]c4ccccc34)C(C(=O)OC)(c3cc4c(cc3OC)N(C=O)C3C(O)(C(=O)OC)C(OC(C)=O)C5(CC)C=CCN6CCC43C65)C2)C1 (configuration not stated)"
  Recorded Result: "219 °C"

Task item: # return recorded melting point for input CCCCCCCCCC(C)O (configuration not stated)
Reply: 0 to 2 °C

Task item: # return recorded melting point for input CC1CCCC1
Reply: -143 to -142 °C

Task item: # return recorded melting point for input CCCCNCCCC
Reply: -62 to -60 °C

Origin of values: a melting point compilation (Tetko et al.)
